| SMILES_INPUT | melting point |
| --- | --- |
| O=C(NCc1cccnc1)c1ccnc(N2CCN(Cc3ccc(F)cc3)C2=O)c1 | 153 to 155 °C |
| O=C(NCc1ccccc1)c1ccnc(NC(=O)c2cccc(C(F)(F)F)c2)c1 | 126 to 128 °C |
| O=C(NCc1ccncc1)c1ccnc(N2CCN(CC3CC3)C2=O)c1 | 160 to 162 °C |
| Cc1cc(CNC(=O)c2ccnc(N3CCN(Cc4ccc(F)cc4)C3=O)c2)nn1C | 150 to 152 °C |

----------
Target: Stearoyl-CoA Desaturase (SCD1) (Mus musculus, UniProt P13516)
Sequence (P13516 1-355): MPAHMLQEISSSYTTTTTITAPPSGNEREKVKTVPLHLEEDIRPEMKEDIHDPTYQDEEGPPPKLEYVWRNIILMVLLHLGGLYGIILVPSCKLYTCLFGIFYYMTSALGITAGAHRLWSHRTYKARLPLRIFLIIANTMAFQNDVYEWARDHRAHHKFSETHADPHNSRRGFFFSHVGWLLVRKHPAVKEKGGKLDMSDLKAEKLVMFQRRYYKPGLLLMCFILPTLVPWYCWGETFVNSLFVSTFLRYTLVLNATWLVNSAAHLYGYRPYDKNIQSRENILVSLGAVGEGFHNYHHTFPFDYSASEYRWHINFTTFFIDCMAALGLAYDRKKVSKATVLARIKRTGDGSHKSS
Counter-ions that a name gives are not always drawn.
# IC50 per entry
MEASUREMENT_LABEL: IC50 (µM)

| MOLECULE | MEASUREMENT_LABEL | OBS_VALUE |
| --- | --- | --- |
| O=C(NCc1ccc(F)cc1)c1ccnc(N2CCN(Cc3ccc(F)cc3)C2=O)c1 [Example 15.4] | IC50 | 0.02 |
| O=C(NCc1ccccn1)c1ccnc(N2CCN(Cc3ccc(F)cc3)C2=O)c1 [Example 15.3, dihydrochloride] | IC50 | 0.07 |
| Cc1cc(CNC(=O)c2ccnc(-n3cnn(Cc4ccc(F)cc4)c3=O)c2)no1 [Example 26.22] | IC50 | 0.01 |
| COc1cccc(C(=O)Nc2cc(C(=O)NCc3ccccc3)ccn2)c1 [Example 6.4] | IC50 | 0.13 |

----------
MEASUREMENT_LABEL: melting point

| COMPOUND | OBS_VALUE |
| --- | --- |
| O=C(Nc1cc(-c2nnc(-c3ccccc3)o2)ccn1)c1ccccc1 [Example 11] | 151 to 155 °C |
| O=C(NCc1ccccc1)c1ccnc(NC(=O)c2cc(F)ccc2Cl)c1 [Example 6.9] | 180 to 181 °C |
| NC(=O)c1ccnc(N2CCN(Cc3ccc(F)c(F)c3)C2=O)c1 [Example 26.30] | 195 to 198 °C |
| Cc1c[nH]c(-c2ccnc(NC(=O)c3ccccc3)c2)n1 [Example 10] | 133 to 135 °C |
| O=C(NCc1ccc(F)cc1)c1ccnc(N2CCN(CC3CC3)C2=O)c1 [Example 15.6] | 150 to 151 °C |
| O=C(NCc1ccccn1)c1ccnc(N2CCN(CC3CC3)C2=O)c1 [Example 15.10] | 122 to 123 °C |
| COc1ccccc1C(=O)Nc1cc(C(=O)NCc2ccccc2)ccn1 [Example 6.6] | 205 to 207 °C |
| O=C(NCc1ccccn1)c1ccnc(-n2cnn(Cc3ccc(F)cc3)c2=O)c1 [Example 26.27] | 181 to 183 °C |
| Cc1cc(CNC(=O)c2ccnc(N3CCN(Cc4ccc(OC(F)(F)F)cc4)C3=O)c2)no1 [Example 26.13] | 129 to 130 °C |
| O=C(NCc1ccccn1)c1ccnc(N2CCN(Cc3ccc(C(F)(F)F)cc3)C2=O)c1 [Example 26.12] | 161 to 163 °C |
| O=C(NCc1ccc(C(F)(F)F)cc1)c1ccnc(NC(=O)c2ccccc2)c1 [Example 1] | 165 to 168 °C |
| O=C(NCc1ccc(F)c(F)c1)c1ccnc(N2CCN(CC3CC3)C2=O)c1 [Example 15.12] | 134 to 136 °C |
| O=C(NCc1cocn1)c1ccnc(N2CCN(Cc3ccc(F)cc3)C2=O)c1 [Example 14] | 197 to 199 °C |
| O=C(NCc1ccccc1)c1ccnc(-n2ccc(O)cc2=O)c1 [Example 20] | 102 to 105 °C |
| O=C(NCc1ccccn1)c1ccnc(N2CCN(Cc3ccc(F)c(F)c3)C2=O)c1 [Example 25] | 99 to 101 °C |
| O=C(NCc1ncco1)c1ccnc(N2CCN(Cc3ccc(F)cc3)C2=O)c1 [Example 14.4] | 148 to 150 °C |
| O=C(NCc1ccc(F)c(F)c1)c1ccnc(N2CCN(Cc3ccccn3)C2=O)c1 [Example 15.18] | 143 to 145 °C |
| O=C(NCc1ccc(F)cc1)c1ccnc(N2CCN(Cc3ccc(F)c(F)c3)C2=O)c1 [Example 15.20] | 165 to 167 °C |
